Test: Bound water lifetime τM^298 of Ln(1)^3+ complexes by fitting temperature dependent 17O NMR bound water line widths; exchange limit regime Δω•τM calculated
Type: physicochemical
Details: Ln(1)^3+ complexes, 298 K
Procedure: A first experiment, examined the life times at 298° K, τM^298, of water molecules bound to various lanthanide-macrocylic complexes of the present invention, and having the general formula, Ln(1)^3+, where the four pendent arms R, R′, R″ and R″′ are all ethyl-acetamidoacetate (i.e., LnDOTA-4AmCE^3+), as depicted below: [drawing 4] Individual τM^298 values were obtained by fitting the temperature dependent ^17O NMR bound water line widths according to standard exchange theory. […]
attributeMeasured: τM (bound water lifetime) (μs)
Numeric only. Scale: μs

Solved cases (3 shown):
>  <smilesStr>
CCOC(=O)CNC(=O)CN1CCN(CC(=O)NCC(=O)OCC)CCN(CC(=O)NCC(=O)OCC)CCN(CC(=O)NCC(=O)OCC)CC1.[Sm+3]

>  <recordedValue>
320

$$$$
>  <smilesStr>
CCOC(=O)CNC(=O)CN1CCN(CC(=O)NCC(=O)OCC)CCN(CC(=O)NCC(=O)OCC)CCN(CC(=O)NCC(=O)OCC)CC1.[Yb+3]

>  <recordedValue>
3

$$$$
>  <smilesStr>
CCOC(=O)CNC(=O)CN1CCN(CC(=O)NCC(=O)OCC)CCN(CC(=O)NCC(=O)OCC)CCN(CC(=O)NCC(=O)OCC)CC1.[Nd+3]

>  <recordedValue>
80

$$$$

As a next step, examine the compound that follows.
Recorded τM (bound water lifetime) of `CCOC(=O)CNC(=O)CN1CCN(CC(=O)NCC(=O)OCC)CCN(CC(=O)NCC(=O)OCC)CCN(CC(=O)NCC(=O)OCC)CC1.[Ho+3]` , please. 19
